# PROCEDURE TEXT: Cytotoxicity against mouse RAW264.7 cells assessed as cell viability at 40 uM incubated for 24 hrs by MTT assay relative to control
# Assay type: toxicity, cell-based
# CONDITION SUMMARY: read-out: Activity
Readings of viability at 24 h, 40 µM for the listed molecules

[
  {
    "MOLECULE": "CC(C)(C)OC(=O)CC(=O)Nc1nc2c(s1)C[C@]1(C)[C@H]3C[C@@H](O)[C@@H]4C([C@]5(C)CC[C@@H](C(C)(C)O)O5)CC[C@@]4(C)[C@]3(C)CC[C@H]1C2(C)C (stereo partly drawn)",
    "viability at 24 h, 40 µM": "> 90%"
  },
  {
    "MOLECULE": "CC(C)(O)[C@H]1CC[C@@](C)(C2CC[C@]3(C)[C@@H]2[C@H](O)C[C@@H]2[C@@]4(C)CC[C@H](OC(=O)CCC(=O)Nc5nnc(Cl)s5)C(C)(C)[C@@H]4CC[C@]23C)O1 (stereo partly drawn)",
    "viability at 24 h, 40 µM": "> 90%"
  },
  {
    "MOLECULE": "CC(C)(C)OC(=O)CCCC(=O)Nc1nc2c(s1)C[C@]1(C)[C@H]3C[C@@H](O)[C@@H]4C([C@]5(C)CC[C@H](C(C)(C)O)O5)CC[C@@]4(C)[C@]3(C)CC[C@H]1C2(C)C (stereo partly drawn)",
    "viability at 24 h, 40 µM": "> 90%"
  }
]

From: ChEMBL document CHEMBL5500363
